B1: DYRK1B (parent)
chain: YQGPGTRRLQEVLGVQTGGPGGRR

variants of: B1; experiment: protein stability index of a GFP-peptide fusion (GPS, HEK-293T) (PSI 1-6); higher = more stable; conditions: c terminus: a fixed tail appended;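 also: lentivirally expressed fusions sorted by FACS into six bins by GFP to DsRed ratio, PSI derived from sequencing read proportions per bin multiplied by bin number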
Everything with protein stability index lower than 3 is -1; everything else, including exactly 3, is 1.

Consider the following illustrative entries.
Prompt: Could you verify whether the entry "L9N" shows protein stability index of no less than 3?
Completion: 1

Prompt: Test whether the variant "Y1L" records protein stability index of 3 or higher.
Completion: 1

Prompt: API: above_or_equal(metric=protein stability index, cutoff=3) for item "R7Q"
Completion: 1

Prompt: Hi team, for "R8W" , is the recorded protein stability index at or above 3?
Completion: 1

Prompt: Tell me whether protein stability index is at least 3 here: "G21R"
Completion: 1

Others:
Prompt: Decide: protein stability index of "L13I" >= 3?
Completion: 1
